The origin of these recorded values is PubChem BioAssay.

Assay Explanation: S. cerevisiae RM11-1a growth modifiers, primary screen, strain RM11-1a, OD600, basal, 24 h (AID 1177);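 also: cultures grown under basal conditions with no added stressor; test concentration not given here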
Settings: OD600, 24 h, higher = more signal, called active from +8 up or from −8 down
Exercise: for every item that follows, state its recorded z-score.
Just the number.

For the compound COCC1C2CC[C@H]3C(OCc4ccc(OC)cc4)OC[C@]4(C)[C@H]3C2=C(CN4C(=O)OC(C)(C)C)[C@H](C)C1COC (stereo not given in full) , what z-score is on record?
-0.688

z-score lookup needed for CN1C(=O)[C@@H]2[C@@H](CC(COc3ccccc3)=C([C@H](O)CCc3ccccc3)[C@@H]2CO)C1=O , thanks.
-0.136

Would you kindly share the measured z-score for O=C1C2C=CC(C(O)c3ccc4c(c3)OCO4)N(Nc3ccccc3)C2C(=O)N1c1ccccc1 (stereo not given) ?
0.581

Entry under review: COC(=O)C1N=C(c2ccc(OCCCO)cc2)N(c2ccccc2)O1 (stereo not given) . Reported z-score?
0.061

z-score for COC(=O)[C@@]1(Cc2ccc(F)cc2)[C@H]2c3cc(C(=O)N(C)C)n(Cc4c(CO)[nH]cc(C)c4=O)c3C[C@H]2CN1C(=O)c1ccccc1 ?
0.986

// query z-score value for entry O=C1[C@@H]2[C@@H](CC(COc3ccccc3)=C3[C@@H](CCc4ccccc4)OB(O)C[C@@H]32)C(=O)N1Cc1ccccc1
-0.0775

Given the entry CC(C)CCC[C@@H](C)[C@H]1CC[C@@]2(C)C3=C(CC[C@]12C)[C@@]1(C)CC[C@H](OC(=O)c2ccccc2)C(C)(C)C1CC3 (stereo not given in full) , report its measured z-score.
-1.61

Which z-score value belongs to C=C[C@@H](C)[C@H](O)c1ccc(OCCO)cc1 ?
0.164

State the recorded z-score for this entry: [N-]=[N+]=NC[C@H](Cc1ccccc1)NC(=O)c1ccccc1
-0.401

Entry COc1ccc(CCNC(=O)[C@@]2(Cc3ccccc3I)c3ccccc3C(=O)N(Cc3ccccc3Cl)[C@H]2c2ccc(CO)cc2)cc1 : reported z-score = ?
-0.377

Could you share which z-score value was measured for COC(=O)[C@@]1(Cc2ccccc2CN=[N+]=[N-])N=C(c2ccc(OCCCO)cc2)O[C@H]1c1ccccc1CN=[N+]=[N-] ?
2.88

What does the record list as z-score for C=CCC(OC(C)=O)[C@@H]1[C@@H](N(Cc2cc3ccccc3o2)C(=O)c2ccc(-c3ccccc3)cc2)c2cc(OCCCO)ccc2N1C(=O)Cc1ccc(OC)cc1 (stereo not given in full) ?
0.708

z-score for O=C1C[C@@](C(=O)NCC(F)(F)F)(c2ccc([N+](=O)[O-])cc2)[C@@H](c2ccc(CO)cc2)N1CC12CC3CC(CC(C3)C1)C2 ?
0.419

What measured z-score goes with CO[C@H]1O[C@H](CO)[C@@H](OC(=O)CCc2ccccc2)[C@H](OC(=O)c2cc3ccccc3[nH]2)[C@H]1OC(=O)c1cc2ccccc2[nH]1 ?
0.033

Quick one: z-score for COC(=O)[C@@]1(Cc2ccccc2)[C@H]2c3cc(C(=O)N4CCCC4)n(CCSCCO)c3C[C@H]2CN1C(=O)c1ccccc1 ?
0.53

----------
Measurement Target: E3 ubiquitin-protein ligase XIAP (Homo sapiens) (UniProt P98170)
Sequence (P98170 whole entry, looked up): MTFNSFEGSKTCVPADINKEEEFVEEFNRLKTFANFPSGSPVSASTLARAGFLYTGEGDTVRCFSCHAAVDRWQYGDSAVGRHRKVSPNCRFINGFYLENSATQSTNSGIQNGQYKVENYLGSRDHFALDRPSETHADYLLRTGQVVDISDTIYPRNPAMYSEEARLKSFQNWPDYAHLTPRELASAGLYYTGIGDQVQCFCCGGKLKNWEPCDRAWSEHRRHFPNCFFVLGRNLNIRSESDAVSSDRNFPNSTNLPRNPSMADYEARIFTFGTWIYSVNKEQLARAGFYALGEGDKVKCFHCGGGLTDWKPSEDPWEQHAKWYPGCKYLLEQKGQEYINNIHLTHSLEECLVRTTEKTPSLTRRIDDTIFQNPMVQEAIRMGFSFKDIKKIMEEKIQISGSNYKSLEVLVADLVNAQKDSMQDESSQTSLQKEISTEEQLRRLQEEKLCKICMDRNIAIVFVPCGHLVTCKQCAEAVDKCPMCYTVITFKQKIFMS
Assay Explanation: XIAP binders, primary screen, biophysical, small-molecule microarray, fluorescence 635 nm (AID 1181);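 also: score merges 667 nm emission and signal to noise over triplicate slides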
Settings: small-molecule microarray binding, higher = more signal
# if value of composite z-score reaches -0.01, tag TRUE; if it stays below, tag FALSE

Reported composite z-score at or above -0.01? COCC(=C=CC[C@@H](O)c1ccc(OCCO)cc1)CCO
FALSE

Is composite z-score for C=C(/C(=C/C[C@H](OC(=O)c1ccncc1)c1cccc(OCCO)c1)c1cnc2ccccc2c1)C(C)C at or above -0.01?
TRUE

Does the reported composite z-score for O=C1C2C=CC(C(O)c3ccco3)N(Nc3ccccc3)C2C(=O)N1c1ccccc1 (stereo not drawn) fall at or above the -0.01 mark?
FALSE

Evaluate C=C(C)[C@@H]1CC=C(C(O)C2C=CC3C(=O)N(c4ccccc4)C(=O)C3N2Nc2ccc(C#N)cc2)CC1 (stereo partly drawn) : composite z-score at minimum -0.01?
TRUE

Hello, I need to know if O=C(CS)NCCCCCNC(=O)[C@@H]1C[C@@H]2C(=O)N[C@@H](Cc3ccccc3)C(=O)N2[C@@H]1c1cccc(OCCO)c1 has measured composite z-score not below -0.01. Thanks!
FALSE

Is the recorded value of composite z-score equal to or greater than -0.01 for this compound? CCCCC(=C=CC[C@H](O)c1ccc(OCCO)cc1)C[C@H](O)COCc1ccccc1
TRUE
